Recorded values, source patent US20200369630A1.

# Tested on: HORMU: Hordeum murinum
# test_details: Post-emergence herbicidal action
# Type: in vivo
# condition_notes: Table C2, post-emergence, dosage 320 (0.32 kg of active substance per hectare), rated visually after about 3 weeks
value_kind: Herbicidal action against [%] HORMU (%)
Provide only the numeric value, understood in %.

Input line: Value lookup for Herbicidal action against [%] HORMU; key = COC(=O)C1CCC(NC(=O)C2(C(F)(F)F)CC(c3cccc(F)c3)=NO2)C1 (mixture of isomers) [Example I-325]
Output line: 90

###

# Tested on: LOLRI: Lolium rigidum
# test_details: Post-emergence herbicidal action
# Type: in vivo
# condition_notes: Table C2, post-emergence, dosage 320 (0.32 kg of active substance per hectare), rated visually after about 3 weeks
Below is a list of entries, each paired with its recorded Herbicidal action against [%] LOLRI value.
Write the answer as a number in %, unit excluded.

Worked set:
CCOC(=O)C1CCC(NC(=O)C2(C(F)(F)F)CC(c3cc(F)c(F)c(F)c3)=NO2)C1 (mixture of isomers) :: 90
O=C(O)C1CCC(NC(=O)C2(C(F)(F)F)CC(c3cccc(F)c3)=NO2)C1 (mixture of isomers) :: 100
O=C(O)[C@@H]1CC[C@H](NC(=O)[C@@]2(C(F)(F)F)CC(c3cc(F)cc(F)c3)=NO2)C1 :: 90

Next compound, please.
Input line: Recorded Herbicidal action against [%] LOLRI of CCOC(=O)C1CCC(NC(=O)C2(C(F)(F)F)CC(c3cc(F)cc(F)c3)=NO2)C1 (mixture of isomers) , please.
Output line: 90

###

# System: HORMU: Hordeum murinum
# test_details: Post-emergence herbicidal action
# Format: in vivo
# condition_notes: Table C2, post-emergence, dosage 320 (0.32 kg of active substance per hectare), rated visually after about 3 weeks
value_kind: Herbicidal action against [%] HORMU (%)
Lab book: enter the figure in %, no units written.

O=C(O)[C@@H]1CC[C@H](NC(=O)[C@@]2(C(F)(F)F)CC(c3cc(F)cc(F)c3)=NO2)C1 :: 80
CC(C)(C)OC(=O)[C@@H]1CC[C@H](NC(=O)[C@@]2(C(F)(F)F)CC(c3cc(F)cc(F)c3)=NO2)C1 :: 90
COC(=O)C1CCC(NC(=O)C2(C(F)(F)F)CC(c3cc(C)cc(Cl)c3)=NO2)C1 (mixture of isomers) :: 80
CCOC(=O)C1CCC(NC(=O)C2(C(F)(F)F)CC(c3cc(C)cc(F)c3)=NO2)C1 (mixture of isomers) :: 80
CCOC(=O)C1CCC(NC(=O)C2(C(F)(F)F)CC(c3cc(F)c(F)c(F)c3)=NO2)C1 (mixture of isomers) :: 90
O=C(OCC(F)(F)F)C1CCC(NC(=O)C2(C(F)(F)F)CC(c3cccc(F)c3)=NO2)C1 (mixture of isomers) :: 100
CCOC(=O)C1CCC(NC(=O)C2(C(F)(F)F)CC(c3cc(F)cc(F)c3)=NO2)C1 (mixture of isomers) :: 90
O=C(OCCCl)C1CCC(NC(=O)C2(C(F)(F)F)CC(c3cc(F)cc(F)c3)=NO2)C1 (mixture of isomers) :: 90
O=C(O)C1CCC(NC(=O)C2(C(F)(F)F)CC(c3cccc(F)c3)=NO2)C1 (mixture of isomers) :: 100
CCOC(=O)C1CCC(NC(=O)C2(C(F)(F)F)CC(c3cccc(F)c3)=NO2)C1 (mixture of isomers) :: 100

Now look at this one.
Input line: Name the reported Herbicidal action against [%] HORMU value associated with the molecule `O=C(OCC(F)(F)F)[C@@H]1CC[C@H](NC(=O)[C@@]2(C(F)(F)F)CC(c3cc(F)cc(F)c3)=NO2)C1`
Output line: 90
